Target: human TRPV1 (Homo sapiens)
Construct: expressed in transfected cells; host or cells: CHO cells
Sequence (Q8NER1 whole entry): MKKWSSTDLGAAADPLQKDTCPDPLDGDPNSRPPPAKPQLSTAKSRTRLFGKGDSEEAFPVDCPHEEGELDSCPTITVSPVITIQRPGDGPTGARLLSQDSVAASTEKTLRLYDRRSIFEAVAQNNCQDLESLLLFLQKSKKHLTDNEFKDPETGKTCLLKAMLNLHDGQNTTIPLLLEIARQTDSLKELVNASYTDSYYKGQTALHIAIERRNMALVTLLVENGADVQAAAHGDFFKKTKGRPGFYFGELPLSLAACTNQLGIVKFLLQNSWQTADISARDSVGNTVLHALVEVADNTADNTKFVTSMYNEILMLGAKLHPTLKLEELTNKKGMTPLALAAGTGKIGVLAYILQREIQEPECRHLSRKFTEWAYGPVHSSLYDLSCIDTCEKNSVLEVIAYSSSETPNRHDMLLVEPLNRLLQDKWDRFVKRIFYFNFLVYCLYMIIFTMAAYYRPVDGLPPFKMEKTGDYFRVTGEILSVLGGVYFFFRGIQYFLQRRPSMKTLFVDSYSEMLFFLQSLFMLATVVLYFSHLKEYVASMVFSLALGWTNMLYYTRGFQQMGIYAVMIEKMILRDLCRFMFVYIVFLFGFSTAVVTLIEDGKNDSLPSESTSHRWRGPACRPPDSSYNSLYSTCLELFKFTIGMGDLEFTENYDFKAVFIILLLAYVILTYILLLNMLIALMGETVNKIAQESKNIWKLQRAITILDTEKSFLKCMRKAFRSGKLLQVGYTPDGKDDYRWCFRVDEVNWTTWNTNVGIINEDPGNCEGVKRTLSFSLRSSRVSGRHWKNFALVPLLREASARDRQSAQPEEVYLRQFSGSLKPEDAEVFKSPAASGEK
Experiment: Intracellular calcium influx in human TRPV1-expressing CHO cells
Format: cell-based
Settings: final concentration 1 μM; relative to 1 μM capsaicin
Description: 3. Measurement of Intracellular Calcium Influx by Present Compound in Human TRPV1-Expressing Cells It is known that TRPV1 is an ion channel receptor and by the activation of TRPV1, intracellular calcium ion influx occurs. […] (Calcium influx(%))=((fluorescence intensity in the presence of test compound)−(background fluorescence intensity)/(fluorescence intensity in the presence of control compound)−(background fluorescence intensity))×100
attributeMeasured: Calcium influx (%)

>>> df
                                   molecule  measvalue
0  CCCCCN(CCC12CC3CC(CC(C3)C1)C2)C(=O)NCC(C)Cc1ccncc1 (stereo not drawn) [Compound 5]       64.3
1  CCCCCN(CCC12CC3CC(CC(C3)C1)C2)C(=O)NCC(C)Cc1ccncc1 (single isomer, unassigned; (+)) [Compound 6]       76.6
2  CCCN(CCCC12CC3CC(CC(C3)C1)C2)C(=O)NCCCc1ccncc1       59.8

A. O=C(NCCCc1ccncc1)N(CCC(F)(F)F)CCC12CC3CC(CC(C3)C1)C2
B. CCCCCN(CCC12CC3CC(CC(C3)C1)C2)C(=O)NC(C)CCc1ccncc1 (stereo not drawn)
Q: So which one has the bigger Calcium influx (%) here, A or B ? Record your answer as the label of the chosen record.
Result: A
